Listed here are compounds together with their documented H1.0 immunofluorescence intensity.
tested on: TDF; experiment: H1.0 immunofluorescence intensity relative to DMSO (% of DMSO); higher = stronger H1.0 induction, active = 120 or more; details: concentration: 10 µM; 24 h;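 further: TDF is a line of transformed human dermal fibroblasts of mesenchymal origin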
Just the number, please, no unit attached.

// solved cases for H1.0 immunofluorescence intensity follow
NC(N)=NN=Cc1c(Cl)cccc1Cl; 98.2
CC(C)=CCC(OC(=O)C=C(C)C)C1=CC(=O)c2c(O)ccc(O)c2C1=O (stereo not drawn) [Shikonin beta,beta-dimethylacrylate]; 109
O=S(=O)(NCc1ccccn1)c1ccc(Br)c2ccccc12 [4-bromo-N-(2-pyridinylmethyl)-1-naphthalenesulfonamide]; 96.2

Consider the additional compound presented here.
Would you kindly share the measured H1.0 immunofluorescence intensity for Nc1ncnc2n[nH]c(Nc3ccc(F)cc3)c12 [MNK1 Inhibitor] ?
88.8

Sourced from the supplement of paper PMC7156485
